Biological target: DNA-PKCS kinase (Ku-dependent activation) (Homo sapiens, UniProt P12956+P13010)
Assay: DNA-PKCS kinase activity assay, Ku70/80-dependent in vitro phosphorylation of a p53-based peptide substrate
Conditions: p53-based peptide substrate, logarithmic trend line
readout_kind: IC50

I'd like to know its IC50. The compound in question is COc1ccc(CCNc2ncc3c(=O)n(-c4cccc(F)c4)c(=O)[nH]c3n2)cc1OC [Compound L] 2500 nM

* * *

Experiment: Radiation sensitization / cytotoxicity by MTS assay in prostate epithelial cells
Assay type: cell-based, human
Settings: human, hTERT immortalized prostate epithelial (PrEC) cells; PrEC, up to 25 μM, MTS after six day recovery; read-out: Non-viability (toxicity of compound as single modality)
readout_kind: cytotoxicity at 6 days

# cytotoxicity at 6 days lookup, item COc1ccc(CCNc2ncc3c(=O)n(-c4cccc(F)c4)c(=O)[nH]c3n2)cc1OC [Compound L] < 5%

* * *

Experiment: Pharmacokinetic profile after bolus IP injection, plasma levels by LC-MS
Assay type: in vivo, nude mice
Settings: mouse, plasma; nude mice, bolus IP 1, 3 or 5 mg/kg
readout_kind: half-life

I am curious: what half-life value has been reported for COc1ccc(CCNc2ncc3c(=O)n(-c4cccc(F)c4)c(=O)[nH]c3n2)cc1OC ? ~1.5 h

* * *

Molecular target: Ku70/80 heterodimer-DNA interaction (Homo sapiens, UniProt P12956+P13010)
Sequence (P12956 whole entry): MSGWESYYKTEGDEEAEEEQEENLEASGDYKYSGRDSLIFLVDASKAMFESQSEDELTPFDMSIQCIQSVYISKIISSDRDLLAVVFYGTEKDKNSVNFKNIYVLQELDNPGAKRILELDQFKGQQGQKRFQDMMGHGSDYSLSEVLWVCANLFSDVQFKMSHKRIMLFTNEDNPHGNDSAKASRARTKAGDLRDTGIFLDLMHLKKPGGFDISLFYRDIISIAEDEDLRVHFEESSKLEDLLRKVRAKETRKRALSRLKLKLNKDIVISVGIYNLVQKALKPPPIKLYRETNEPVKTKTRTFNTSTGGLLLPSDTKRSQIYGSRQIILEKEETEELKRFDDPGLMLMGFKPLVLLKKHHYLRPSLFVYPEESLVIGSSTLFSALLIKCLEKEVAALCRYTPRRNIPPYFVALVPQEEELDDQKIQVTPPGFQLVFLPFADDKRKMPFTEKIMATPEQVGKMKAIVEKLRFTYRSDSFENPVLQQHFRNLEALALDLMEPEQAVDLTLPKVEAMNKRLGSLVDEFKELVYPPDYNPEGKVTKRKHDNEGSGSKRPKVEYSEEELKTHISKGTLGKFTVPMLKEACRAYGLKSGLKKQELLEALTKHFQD
Sequence (P13010 whole entry): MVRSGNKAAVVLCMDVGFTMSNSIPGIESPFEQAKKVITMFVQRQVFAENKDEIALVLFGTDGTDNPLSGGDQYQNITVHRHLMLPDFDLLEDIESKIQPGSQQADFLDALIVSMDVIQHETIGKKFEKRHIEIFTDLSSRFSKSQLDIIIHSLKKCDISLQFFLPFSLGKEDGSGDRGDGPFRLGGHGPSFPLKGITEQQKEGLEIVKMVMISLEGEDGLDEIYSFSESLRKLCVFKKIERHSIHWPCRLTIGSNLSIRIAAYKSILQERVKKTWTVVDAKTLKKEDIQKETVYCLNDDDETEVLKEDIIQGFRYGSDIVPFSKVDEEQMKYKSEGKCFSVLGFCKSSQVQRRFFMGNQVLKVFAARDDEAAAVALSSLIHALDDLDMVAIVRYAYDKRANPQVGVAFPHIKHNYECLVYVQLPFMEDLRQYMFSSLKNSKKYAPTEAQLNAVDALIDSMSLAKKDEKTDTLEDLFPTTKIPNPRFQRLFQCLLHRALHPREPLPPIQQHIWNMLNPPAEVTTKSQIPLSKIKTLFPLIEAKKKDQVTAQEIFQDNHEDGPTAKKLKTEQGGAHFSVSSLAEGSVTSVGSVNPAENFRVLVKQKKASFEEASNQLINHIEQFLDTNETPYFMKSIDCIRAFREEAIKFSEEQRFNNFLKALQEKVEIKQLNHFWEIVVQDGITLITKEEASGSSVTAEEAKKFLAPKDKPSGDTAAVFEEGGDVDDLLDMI
Test: Electrophoretic Mobility Shift Assay (EMSA) of Ku70/80 binding to a DNA substrate
Settings: EMSA titration, logarithmic trend line; read-out: IC50, dose needed to inhibit 50% of maximal Ku-DNA binding
readout_kind: IC50 (µM)
Report as a plain number; the unit µM is understood.

Please state recorded IC50 (tested on Ku70/80 heterodimer-DNA interaction (Homo sapiens, UniProt P12956+P13010)) of COc1ccc(CCNc2ncc3c(=O)n(-c4cccc(F)c4)c(=O)[nH]c3n2)cc1OC [Compound L] 3.5
